target: ERα protein (HiBiT-tagged) in ESR1_HiBiT KI MCF7 cells (Homo sapiens, UniProt P03372)
Sequence (P03372 whole entry): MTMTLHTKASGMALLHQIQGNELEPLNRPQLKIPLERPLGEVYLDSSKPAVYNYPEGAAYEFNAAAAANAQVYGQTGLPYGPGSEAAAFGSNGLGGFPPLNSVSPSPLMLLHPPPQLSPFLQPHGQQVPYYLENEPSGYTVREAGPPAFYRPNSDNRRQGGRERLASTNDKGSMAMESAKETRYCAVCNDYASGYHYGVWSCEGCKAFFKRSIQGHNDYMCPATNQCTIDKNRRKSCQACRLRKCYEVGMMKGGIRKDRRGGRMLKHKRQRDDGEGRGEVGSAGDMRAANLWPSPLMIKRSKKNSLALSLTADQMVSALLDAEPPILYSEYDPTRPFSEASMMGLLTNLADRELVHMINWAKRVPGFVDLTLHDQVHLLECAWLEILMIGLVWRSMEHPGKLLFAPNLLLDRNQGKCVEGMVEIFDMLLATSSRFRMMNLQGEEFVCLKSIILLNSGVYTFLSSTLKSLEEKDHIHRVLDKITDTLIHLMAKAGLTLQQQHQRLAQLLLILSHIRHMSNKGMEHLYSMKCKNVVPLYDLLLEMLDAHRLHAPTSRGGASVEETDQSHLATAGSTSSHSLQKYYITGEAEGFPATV
assay-comment: Nano Glo HiBiT Lytic Degradation Assay
Format: cell-based
test-parameters: 6 hours with compound, 14-point dose response 1:3, bell-shape curve fit, half-maximal effect of first Hill model, read-out: MCF7 ESR1 HiBiT - (DC50)
// reported DC50 for each item listed

Previously resolved entries follow.
• CC(C)c1ccccc1[C@H]1OCc2cc(O)ccc2[C@H]1c1ccc(N2CCC(CN3CCN(c4ccc5c(c4)CN([C@H]4CCC(=O)NC4=O)C5=O)CC3)CC2)cc1 = 0.2 nM
• Cc1ccc([C@H]2OCc3cc(O)ccc3[C@H]2c2ccc(N3CCC(CN4CCN(c5ccc6c(c5)CN([C@H]5CCC(=O)NC5=O)C6=O)CC4)CC3)cc2)cc1F (single isomer, unassigned) = 0.27 nM
• O=C1CC[C@H](N2Cc3cc(N4CCN(CC5CCN(c6ccc([C@@H]7c8ccc(O)cc8CC[C@]78CCc7ccccc78)cc6)CC5)CC4)ccc3C2=O)C(=O)N1 = 2 nM
• C[C@H](C1CCN(c2ccc([C@@H]3c4ccc(O)cc4CC[C@@H]3c3ccccc3)cc2)CC1)N1CCN(c2ccc3c(c2)CN(C2CCC(=O)NC2=O)C3=O)CC1 (single isomer, unassigned) = 0.51 nM

**Query** Which DC50 is listed for O=C1CC[C@H](N2Cc3cc(N4CCN(CC5CCN(c6ccc([C@H]7c8ccc(C(=O)O)cc8CC[C@H]7c7ccccc7)cc6)CC5)CC4)ccc3C2=O)C(=O)N1 (single isomer, unassigned) ?
**Result** 3 nM

**Query** May I ask what DC50 has been recorded for O=C1CC[C@H](N2Cc3cc(N4CCN(CC5CCN(c6ccc([C@@H]7c8ccc(O)cc8CC[C@@H]7c7ccc(F)cc7)cc6)CC5)CC4)ccc3C2=O)C(=O)N1 ?
**Result** 0.64 nM

**Query** So what's the measured DC50 for this one? O=C1CC[C@H](N2Cc3cc(N4CCN(CC5CCN(c6ccc([C@H]7c8ccc(O)cc8CC[C@H]7c7cccc8c7CCC8)cc6)CC5)CC4)ccc3C2=O)C(=O)N1 (single isomer, unassigned)
**Result** 1 nM

**Query** // query DC50 value for entry Cc1cc(F)ccc1[C@H]1OCc2cc(O)ccc2[C@H]1c1ccc(N2CCC(CN3CCN(c4ccc5c(c4)CN([C@H]4CCC(=O)NC4=O)C5=O)CC3)CC2)cc1
**Result** 0.17 nM

**Query** Find the recorded DC50 belonging to O=C1CC[C@H](N2Cc3cc(N4CCN(CC5CCN(c6ccc([C@@H]7c8ccc(O)cc8CO[C@@H]7c7ccccc7)cc6)CC5)CC4)ccc3C2=O)C(=O)N1 and report it.
**Result** 0.27 nM

**Query** Param item = O=C1CC[C@H](N2Cc3cc(N4CCN(CC5CCN(c6ccc([C@H]7c8ccc(O)cc8CC[C@H]7c7ccccc7)c(F)c6)CC5)CC4)ccc3C2=O)C(=O)N1 ; retrieve measured DC50.
**Result** 1090 nM

Data origin, for the record: patent US20250388565A1
